Sourced from patent US20150274820A1

Assayed System: recombinant murine VEGF164 (mouse) (UniProt Q00731)
Assay Comment: Biacore SPR, VEGF immobilized, pH 5
Measured Endpoint: log10 koff (log10 of the value in s⁻¹)

| Binder | log10 koff |
| --- | --- |
| 578minmax FW1.4_DHP (scFv, tied by name only) scFv: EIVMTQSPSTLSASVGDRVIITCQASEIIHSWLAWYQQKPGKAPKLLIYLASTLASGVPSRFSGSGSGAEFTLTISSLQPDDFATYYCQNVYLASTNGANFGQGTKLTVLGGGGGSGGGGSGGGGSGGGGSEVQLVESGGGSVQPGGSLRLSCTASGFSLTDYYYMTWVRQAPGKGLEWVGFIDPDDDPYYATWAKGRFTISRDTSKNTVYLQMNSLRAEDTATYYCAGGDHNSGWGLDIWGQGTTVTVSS | -3.17 |
| 578min_max T84N_V89L_DHP (scFv) scFv: EIVMTQSPSTLSASVGDRVIITCQASEIIHSWLAWYQQKPGKAPKLLIYLASTLASGVPSRFSGSGSGAEFTLTISSLQPDDFATYYCQNVYLASTNGANFGQGTKLTVLGGGGGSGGGGSGGGGSGGGGSEVQLVESGGGSVQPGGSLRLSCTASGFSLTDYYYMTWVRQAPGKGLEWVGFIDPDDDPYYATWAKGRFTISRDNSKNTLYLQMNSLRAEDTATYYCAGGDHNSGWGLDIWGQGTTVTVSS | -2.67 |
| 509-min (scFv, VL and VH tied by name; also called Protein Nr; 854) scFv: EIVMTQSPSTLSASVGDRVIITCQASQNIRIWLSWYQQKPGKAPKLLIYKASTLESGVPSRFSGSGSGAEFTLTISSLQPDDFATYYCQNNAHYSTNGGTFGQGTKLTVLGGGGGSGGGGSGGGGSGGGGSEVQLVESGGGLVQPGGSLRLSCAASGFSLSSYYMCWVRQAPGKGLEWVSCLDYVGDTDYASWAKGRFTISRDNSKNTLYLQMNSLRAEDTAVYYCAKTDDSRGWGLNIWGQGTLVTVSS | -3.00 |
| 578-min (scFv, also called EP578 min; Protein Nr; 820) scFv: EIVMTQSPSTLSASVGDRVIITCQASEIIHSWLAWYQQKPGKAPKLLIYLASTLASGVPSRFSGSGSGAEFTLTISSLQPDDFATYYCQNVYLASTNGANFGQGTKLTVLGGGGGSGGGGSGGGGSGGGGSEVQLVESGGGLVQPGGSLRLSCAASGFSLTDYYYMTWVRQAPGKGLEWVSFIDPDDDPYYATWAKGRFTISRDNSKNTLYLQMNSLRAEDTAVYYCAKGDHNSGWGLDIWGQGTLVTVSS | -1.82 |
| 567-min (scFv, also called Protein Nr; 884) scFv: EIVMTQSPSTLSASVGDRVIITCQADQSIYIWLSWYQQKPGKAPKLLIYKASTLESGVPSRFSGSGSGAEFTLTISSLQPDDFATYYCQNNAHYSTNGGTFGQGTKLTVLGGGGGSGGGGSGGGGSGGGGSEVQLVESGGGLVQPGGSLRLSCAASGFSLSDYYMCWVRQAPGKGLEWVSCLDYFGSTDDASWAKGRFTISRDNSKNTLYLQMNSLRAEDTAVYYCAKTDDSRGWGLNIWGQGTLVTVSS | -3.46 |
| 578min_max T84N_V89L (scFv, the VH entry already carries T84N and V89L; tied by name; also called Protein No. 1008) scFv: EIVMTQSPSTLSASVGDRVIITCQASEIIHSWLAWYQQKPGKAPKLLIYLASTLASGVPSRFSGSGSGAEFTLTISSLQPDDFATYYCQNVYLASTNGANFGQGTKLTVLGGGGGSGGGGSGGGGSGGGGSEVQLVESGGGLVQPGGSLRLSCTASGFSLTDYYYMTWVRQAPGKGLEWVGFIDPDDDPYYATWAKGRFTISRDNSKNTLYLQMNSLRAEDTAVYYCAGGDHNSGWGLDIWGQGTLVTVSS | -2.73 |
| 567-max (scFv, VL and VH tied by name; also called Protein Nr; 874) scFv: EIVMTQSPSTLSASVGDRVIITCQADQSIYIWLSWYQQKPGKAPKLLIYKASTLESGVPSRFSGSGSGTQFTLTISSLQPDDFATYYCQNNAHYSTNGGTFGQGTKLTVLGGGGGSGGGGSGGGGSGGGGSEVQLVESGGGLVQPGGSLRLSCSVSGFSLSDYYMCWVRQAPGKGLEWVGCLDYFGSTDDASWAKGRFTISKDTSKNTVYLQMNSLRAEDTAVYYCARTDDSRGWGLNIWGQGTLVTVSS | -3.82 |
| 511-max (scFv, also called ESBA802) scFv: EIVMTQSPSTLSASVGDRVIITCQASQSINIWLSWYQQKPGKAPKLLIYRASTLASGVPSRFSGSGSGTEFTLTISSLQPDDFATYYCQANYAYSAGYGAAFGQGTKLTVLGGGGGSGGGGSGGGGSGGGGSEVQLVESGGGLVQPGGSLRLSCTVSGFSLNTYYMNWVRQAPGKGLEWVGIIAPDDTTYYASWAKSRSTISRDTSKNTVYLQMNSLRAEDTAVYYCARSGDTTAWGADIWGQGTLVTVSS | -4.34 |
| 511-min (scFv, VL and VH tied by name; also called Protein Nr) scFv: EIVMTQSPSTLSASVGDRVIITCQASQSINIWCSWYQQKPGKAPKLLIYRASTLASGVPSRFSGSGSGAEFTLTISSLQPDDFATYYCQANYAYSAGYGAAFGQGTKLTVLGGGGGSGGGGSGGGGSGGGGSEVQLVESGGGLVQPGGSLRLSCAASGFSLNTYYMNWVRQAPGKGLEWVSIIAPDDTTYYASWAKSRFTISRDNSKNTLYLQMNSLRAEDTAVYYCAKSGDTTAWGADIWGQGTLVTVSS | -2.99 |
